- Test system: Escherichia coli
- Procedure details: Induction of cell membrane damage in Escherichia coli ATCC 25922 at 5 times MIC incubated for 60 mins by PI staining based FACS analysis
- Format: functional, organism-based
Activity calls are given as the source filed them. The calls are words filed in the database; no cut-off is given here.
Property measured: Activity

Sample answers from the record:
> print(dat)
                                smiles.data  observed.value
1  COC(=O)[C@H](CCCc1cc2ccc3ccc4ccc5ccc1c1c5c4c3c21)NC(=O)CNC(=O)[C@@H](N)CCCCN          Active
2  COC(=O)[C@H](Cc1cc2ccc3ccc4ccc5ccc1c1c5c4c3c21)NC(=O)CNC(=O)[C@@H](N)CCCCN          Active
3  COC(=O)[C@H](Cc1cc2ccc3ccc4ccc5ccc1c1c5c4c3c21)NC(=O)[C@H](N)CCCCN          Active
4  COC(=O)[C@H](CCCNC(=N)NS(=O)(=O)c1ccc(C)cc1)NC(=O)[C@@H](N)Cc1cc2ccc3ccc4ccc5ccc1c1c5c4c3c21          Active
5  COC(=O)[C@H](Cc1cc2ccc3ccc4ccc5ccc1c1c5c4c3c21)NC(=O)[C@@H](N)CCCCN.Cl.Cl          Active

Let us examine a further case.
Lookup: Suppose we examine the molecule "COC(=O)[C@H](CCCc1cc2ccc3ccc4ccc5ccc1c1c5c4c3c21)NC(=O)[C@@H](N)CCCCN" ; what Activity value has been reported?
Found: Active

----------
- Procedure details: Hemolytic activity against human RBCs upto 100 uM incubated for 45 mins by absorbance based assay
- Type: toxicity, cell-based, Erythrocyte
- Measurement setup: red blood cells (erythrocytes), read-out: Activity
Property measured: hemolysis at 0.75 h, up to 100 µM

> print(dat)
                                smiles.data                  property.measured  observed.value
1  COC(=O)[C@H](Cc1cc2ccc3ccc4ccc5ccc1c1c5c4c3c21)NC(=O)CNC(=O)[C@@H](N)CCCCN  hemolysis at 0.75 h, up to 100 µM             ~3%

Let us examine a further case.
Lookup: Suppose we examine the compound "COC(=O)[C@H](CCCc1cc2ccc3ccc4ccc5ccc1c1c5c4c3c21)NC(=O)CNC(=O)[C@@H](N)CCCCN" ; what hemolysis at 0.75 h, up to 100 µM value has been reported?
Found: ~5%

----------
Recorded viability at 4 h, up to 60 µM values for a group of compounds are listed next.
- Procedure details: Cytotoxicity against mouse 3T3-L1 cells assessed as cell viability upto 60 uM incubated for 4 hrs by MTT assay relative to control
- Assay type: toxicity, cell-based
- Measurement setup: read-out: Activity
Response body: numeric value in %, unit text excluded.

Sample answers from the record:
> print(dat)
                                smiles.data  unit.name  observed.value
1  COC(=O)[C@H](CCCc1cc2ccc3ccc4ccc5ccc1c1c5c4c3c21)NC(=O)[C@@H](N)CCCCN          %              41
2  COC(=O)[C@H](Cc1cc2ccc3ccc4ccc5ccc1c1c5c4c3c21)NC(=O)CNC(=O)[C@@H](N)CCCCN          %              47
3  COC(=O)[C@H](Cc1cc2ccc3ccc4ccc5ccc1c1c5c4c3c21)NC(=O)[C@H](N)CCCCN          %               3
4  COC(=O)[C@H](Cc1cc2ccc3ccc4ccc5ccc1c1c5c4c3c21)NC(=O)[C@@H](N)CCCCN.Cl.Cl          %              71

Lookup: Suppose we examine the compound "COC(=O)[C@H](CCCc1cc2ccc3ccc4ccc5ccc1c1c5c4c3c21)NC(=O)CNC(=O)[C@@H](N)CCCCN" ; what viability at 4 h, up to 60 µM value has been reported?
Found: 62
